# credit: paper PMC9482650

Biological target: T1, LIN7C, Q9NUP9
T1 sequence (Q9NUP9 88-185, limits assumed, looked up): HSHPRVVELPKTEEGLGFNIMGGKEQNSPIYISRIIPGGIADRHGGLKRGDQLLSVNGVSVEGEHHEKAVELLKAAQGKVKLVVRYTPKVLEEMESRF
Experiment: holdup assay
Parameters: key: below the threshold = too weak to quantify, mostly under pKd 3.1 to 4
Conditions: plain residues with an end cap or a label only (N-terminal biotin on a linker: ttds)
Consider the following binders; for each one, report its pKd.
Just the number.

Lookup: Quick one: pKd of RLPKIKETTV [FRMPD4, Q14CM0] ?
Found: 5.29

Lookup: What do you get for SSLQSLETSV [ATP2B4, P23634] ?
Found: 4.8

Lookup: Also EVVHTPETSV [SLC16A3, O15427] ?
Found: 4.07

Lookup: Record: RHTTSTETAV [HPV30-E6, P36809]
Found: 4.19

Lookup: What about QRQARSETLV [HPV59-E6, Q81964] ?
Found: 3.87

Lookup: How about this binder: RLQRRRETQV [HPV18-E6, P06463]
Found: 4.17

Lookup: Would you kindly repeat that for PVRVCEETSL [OTULIN, Q96BN8] ?
Found: 4.06

Lookup: Likewise for SKPTRRETEV [HPV35-E6, P27228] ?
Found: 3.76

Lookup: # iterate: VDFPPKESSL [ACVR2A, P27037]
Found: 3.73

Lookup: Check KKYVDAETSL [SLC4A7, Q9Y6M7] too.
Found: 3.81

Lookup: Same lookup for SGSRPSATVV [HPV73-E6, Q82005] , please.
Found: 3.81
